# Test system: K4 kissing-loop RNA reporter;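 also: bound reporter read as fluorescence of individual clusters on recovered sequencing chips by microscopy, with normalized cluster intensities fitted with a binding model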
# test protocol: apparent KD of K4 kissing-loop reporter; higher = weaker reporter binding
# experimental conditions: Eterna round: R107; input ligand: arginine 13.2 mM
Label MET when apparent KD of K4 kissing-loop reporter is at or above 0.2 µM; anything below gets NOT MET.

Tell me whether apparent KD of K4 kissing-loop reporter is at least 0.2 µM here: AAAGAGUCACUCGAAGCCAUCGAAGAUGGGCGAGGACCGGUACGGCCGCCACUCGGAGUGAUGUUCCGAAGACUGUAAAAUAAAA [MatMod 11 - Jieux - Exclusion - Tryptophan A] MET

Is apparent KD of K4 kissing-loop reporter at least 0.2 µM? Consider CCUAUCUCGUACGAUACCAGUCAAUGAUCUUUGAUCAAUGCCAUCACCGAGUGAUGUUCGGACCCUUGGCAGCGUAUGAGAUGGG [whbob_Ex_Theo_B_sa105] MET

Dear colleague, could you confirm whether UUAGAGAUCUCAGGAUAUCAGUGAUGUUGAGAUUCAGAUCUGAGAUAGAAUUCUAUCUCAGAUCAAUGAGAAGGGAGAUCUCAUU [AK4.4 Exc FMN B] has apparent KD of K4 kissing-loop reporter at or above 0.2 µM? MET

Assess whether reported apparent KD of K4 kissing-loop reporter for GAUUCAGUGAUGUUGGAAGGCGAGCGGGAUACCAGCCAAGACUCAGGCCCUUGGCAGCCCACAUAUCCCAGGUAGAUAGUCGCUC [Same State - Theophylline A (Freestyle 11)] sits at 0.2 µM or higher. MET

Textbook exercise: given the entry GGGAGUAGUGCGGCCGCCACUGUGAAAGAAGAAGAAUAUAGUGAUGUUAUAUAGGAAAGGAAGAAUAGGACCGGGCAUUAGAUUU [SSTRyptB.K] , state whether its apparent KD of K4 kissing-loop reporter is greater than or equal to 0.2 µM. MET

Does apparent KD of K4 kissing-loop reporter meet or surpass 0.2 µM for GGAUAGGAUAGAGGAUAUGGAAAACACAAAAGUGACUUGUUGUGUUUAUCCAUAGGGAGUGAUGUUCCAGAAGGCUGUCCUAUCG [MatMod 23 - Jieux - Exclusion - FMN B] ? NOT MET

---

# Tested on: MS2 coat protein
# test protocol: apparent KD of MS2 coat protein; designed switch direction (-1 OFF switch, 1 ON switch): 1; higher = weaker reporter binding
# experimental conditions: input ligand: microRNA oligo, concentration not stated
outcome measure: apparent KD of MS2 coat protein
Enter the number, and then the unit.

State apparent KD of MS2 coat protein on MS2 coat protein. Entry: GGUCCGGCCUGAGCUGGACCGGAGCAUGUACAUGAGGAUCACCCAUGUCAUGUACAGGCUUCUUGCUCGUCUUGUUG [JL-shm-2.16 JL Mod] (Eterna round: R96, puzzle: Sensor for hsa-mir-208a) 0.0148 µM

Provide measured apparent KD of MS2 coat protein on MS2 coat protein for GCUGGAAACCACAUGAGGAUCACCCAUGUUCCGGAAACGGCACAGGAUAUCUGUCCGAAAAGGUCAGAGAAGGGUGAAACCAGC [Fiskers NG3ss - 83] (Eterna round: R96, puzzle: Same State NG 3) please. 0.114 µM

Tell me its apparent KD of MS2 coat protein on MS2 coat protein: CGUCGUUUGCUAGGAUAUCGCUAUACAUGAGGAUCACCCAUGUUUACCACGCUGGUUUUUCAUACCGAGAAGGAGUCUGAUGUU [salish99_SSNG02_r04_020] (Eterna round: R96, puzzle: Same State NG 2) 0.0248 µM

Look up and report apparent KD of MS2 coat protein, with MS2 coat protein as system, for AAUUUCUAGAGAGGAUAUGCAGAGGAUCACCCUGCAGAAGGCUCGAGAGAGAGGAUAUGCAGAGGAUCACCCUGCAGAAGGCUC [pwkr ssNG DX.29] (Eterna round: R96, puzzle: Same State NG 1) 0.0147 µM

---

# Test system: MS2 coat protein
# test protocol: apparent KD of MS2 coat protein; designed switch direction (-1 OFF switch, 1 ON switch): 1; higher = weaker reporter binding
# experimental conditions: input ligand: FMN 200 uM
Group membership follows apparent KD of MS2 coat protein per the scheme zone 1 = under 20 nM, zone 2 = from 20 nM up to 100 nM, zone 3 = 100 nM and over

The entry to classify is AGGCUGAGUCGAGGAUAUUAUGGAUCCUCUAAUACAUGAGGAUCACCCAUGUAAUUAAUUAUACAUGAGAAGGCGACUCAGCCU [SSNG2/12-A4] (Eterna round: R96, puzzle: Same State NG 2) ; which class holds it? zone 3

Could you tell me which band ACAUGAGGAUCACCCAUGUCGGAUAAGGAAACGACCACGUGGGAGGAUAUUGUAACGCGUCUGUACGAGAAGGCCCAUUCCAGU [Eternabot solution 42] (Eterna round: R96, puzzle: Same State NG 3) belongs to? zone 2

Assign a category based on measured apparent KD of MS2 coat protein for GCCAACGCAUGAGGAUAUGGCACCUUAUUGGUGCCAGAAGGCGUGUGUAUUCACAUGAGGAUCACCCAUGUAUUAUAGUUGGCA [Fiskers NG1ss - 16] (Eterna round: R96, puzzle: Same State NG 1) and give only the class name. zone 2

Band for the recorded apparent KD of MS2 coat protein of GCUAGGAAAGAAGCCAACAUGAGGAUCACCCAUGUAUGUUGGUAGGAUAUCGUUUGCAAAGCAAACGAGAAGGGCUAACCUAGC [Mat - Same State NG 3 - JL Mod - D73] (Eterna round: R96, puzzle: Same State NG 3) ? zone 3

// return the class label for AGAUCAUGACGAGGAUAUGGUACAUGAGGAUCACCCAUGUAUGUACUAUAACCCGAAUGAGGAAUCCAGAAGGCGUCGUGGUCA [JL SSNG2 1.13] (Eterna round: R96, puzzle: Same State NG 2) zone 2

Input GGCCUCUGUCAAGGAUAUGCUACCGUUUCGGUAGCAGAAGGUGAUCACAUGCGGUUCGCCCAUGUUUAGGCCAACAGGCCCGCC (Eterna round: R96, puzzle: Same State NG 1) ; output its category zone 2

Class label required: GGUACCAUCACAGGAUAUGCUAUCCUUUGGGUAGCAGAAGGGUGAAACAUGAGGAUCACCCAUGUGGUGCCAGGGCGUGAGCCC [JL SSNG1 1.92] (Eterna round: R96, puzzle: Same State NG 1) zone 2

Entry GUUACAUGAGGAUCACCCAUGUAUGUGUGGGAGUAAGUGUCUUAGGAUAUCUAGUAUUUAACUUAAGAGAAGGAAGAUUGUUGU [JMF's solution 63] (Eterna round: R96, puzzle: Same State NG 3) belongs to which category? zone 3

Bin? GGAAGGAGGUCAGGAUAUGAAUGGAUGGGACAUGAGGAUCACCCAUGUAAUAGAAGAAAUCUACAUUAGAAGGGACAAGGAAGG [AK SSNG2-V2-5] (Eterna round: R96, puzzle: Same State NG 2) zone 3

Class? Entry: GUACAGAUUAUAGGAUAUCACGUCGAUUAGACGUGAGAAGGAUAAUCACACAUGAAUAUUAAUACAUGAGGAUCACCCAUGUAC [SSNG1/17-A2] (Eterna round: R96, puzzle: Same State NG 1) zone 1

Form field 'band' for GAGUGGUAAAGAGGAUAUGCAUUGUUAUUCACUGUAGAAGGUUUUAACAUGAGGAUCACCCAUGUAGGACUAUUCCUGUGUUUU [Parity 61 - Jieux - Same State NG 1] (Eterna round: R96, puzzle: Same State NG 1) zone 1

Assign a bin to CGUCGUUUGCUAGGAUAUCGCUAUACAUGAGGAUCACCCAUGUUUACCACGCUGGUUUUUCAUACCGAGAAGGAGUCUGAUGUU [salish99_SSNG02_r04_020] (Eterna round: R96, puzzle: Same State NG 2) zone 2

Kindly identify the class of GUAGCAUACCGAGGAUAUUCAUUAAACAUGAGGAUCACCCAUGUAAAUUAUAGGCGAAAGCCUUGGGAGAAGGCGGAAUGCUAC [Xeonanis - 20 Mod72] (Eterna round: R96, puzzle: Same State NG 2) . zone 1

Record AGCUAGUACCGAGGAUAUACGUACAUGAGGAUCACCCAUGUAUACAUGAUUAAAUGAGACUACAUGUAGAAGGCGGUACUAGCA [Mat - Same State NG 2 - JL mod - D48] (Eterna round: R96, puzzle: Same State NG 2) — which class? zone 1

Bin? GCUACCAAUAAAGCCAACAUGAGGAUCACCCAUGUAUGUUGGUAGGAUAUCGUUUGCAAAGCAAACGAGAAGGGCUAAGGUAGC [Mat - Same State NG 3 - JL Mod - D76] (Eterna round: R96, puzzle: Same State NG 3) zone 2

State the class of the sequence shown: AUUGCUUACGCAGGAUAUGAUGCGAAAAUUGCGUCAGAAGGGUGAAGUAUCUCAUUGCAACAGGACAUGAGGAUCACCCAUGUC [SameState NG1 #99] (Eterna round: R96, puzzle: Same State NG 1) zone 3

Each recorded value in this set is attributed to the supplement of paper PMC9170038.
